Reference source: paper PMC13385800

B1: EGFP-ANKRD11 full length (FL), wild type [not stated] / endogenous TBLR1 of HEK293T cells and of wild-type Flp-In T-REx 293 cells [human (endogenous in HEK293T and Flp-In T-REx 293)] (parent complex)
chain 1: MPKGGCPKAPQQEELPLSSDMVEKQTGKKDKDKVSLTKTPKLERGDGGKEVRERASKRKLPFTAGANGEQKDSDTEKQGPERKRIKKEPVTRKAGLLFGMGLSGIRAGYPLSERQQVALLMQMTAEESANSPVDTTPKHPSQSTVCQKGTPNSASKTKDKVNKRNERGETRLHRAAIRGDARRIKELISEGADVNVKDFAGWTALHEACNRGYYDVAKQLLAAGAEVNTKGLDDDTPLHDAANNGHYKVVKLLLRYGGNPQQSNRKGETPLKVANSPTMVNLLLGKGTYTSSEESSTESSEEEDAPSFAPSSSVDGNNTDSEFEKGLKHKAKNPEPQKATAPVKDEYEFDEDDEQDRVPPVDDKHLLKKDYRKETKSNSFISIPKMEVKSYTKNNTIAPKKASHRILSDTSDEEDASVTVGTGEKLRLSAHTILPGSKTREPSNAKQQKEKNKVKKKRKKETKGREVRFGKRSDKFCSSESESESSESGEDDRDSLGSSGCLKGSPLVLKDPSLFSSLSASSTSSHGSSAAQKQNPSHTDQHTKHWRTDNWKTISSPAWSEVSSLSDSTRTRLTSESDYSSEGSSVESLKPVRKRQEHRKRASLSEKKSPFLSSAEGAVPKLDKEGKVVKKHKTKHKHKNKEKGQCSISQELKLKSFTYEYEDSKQKSDKAILLENDLSTENKLKVLKHDRDHFKKEEKLSKMKLEEKEWLFKDEKSLKRIKDTNKDISRSFREEKDRSNKAEKERSLKEKSPKEEKLRLYKEERKKKSKDRPSKLEKKNDLKEDKISKEKEKIFKEDKEKLKKEKVYREDSAFDEYCNKNQFLENEDTKFSLSDDQRDRWFSDLSDSSFDFKGEDSWDSPVTDYRDMKSDSVAKLILETVKEDSKERRRDSRAREKRDYREPFFRKKDRDYLDKNSEKRKEQTEKHKSVPGYLSEKDKKRRESAEAGRDRKDALESCKERRDGRAKPEEAHREELKECGCESGFKDKSDGDFGKGLEPWERHHPAREKEKKDGPDKERKEKTKPERYKEKSSDKDKSEKSILEKCQKDKEFDKCFKEKKDTKEKHKDTHGKDKERKASLDQGKEKKEKAFPGIISEDFSEKKDDKKGKEKSWYIADIFTDESEDDRDSCMGSGFKMGEASDLPRTDGLQEKEEGREAYASDRHRKSSDKQHPERQKDKEPRDRRKDRGAADAGRDKKEKVFEKHKEKKDKESTEKYKDRKDRASVDSTQDKKNKQKLPEKAEKKHAAEDKAKSKHKEKSDKEHSKERKSSRSADAEKSLLEKLEEEALHEYREDSNDKISEVSSDSFTDRGQEPGLTAFLEVSFTEPPGDDKPRESACLPEKLKEKERHRHSSSSSKKSHDRERAKKEKAEKKEKGEDYKEGGSRKDSGQYEKDFLEADAYGVSYNMKADIEDELDKTIELFSTEKKDKNDSEREPSKKIEKELKPYGSSAINILKEKKKREKHREKWRDEKERHRDRHADGLLRHHRDELLRHHRDEQKPATRDKDSPPRVLKDKSRDEGPRLGDAKLKEKFKDGAEKEKGDPVKMSNGNDKVAPSKDPGKKDARPREKLLGDGDLMMTSFERMLSQKDLEIEERHKRHKERMKQMEKLRHRSGDPKLKEKAKPADDGRKKGLDIPAKKPPGLDPPFKDKKLKESTPIPPAAENKLHPASGADSKDWLAGPHMKEVLPASPRPDQSRPTGVPTPTSVLSCPSYEEVMHTPRTPSCSADDYADLVFDCADSQHSTPVPTAPTSACSPSFFDRFSVASSGLSENASQAPARPLSTNLYRSVSVDIRRTPEEEFSVGDKLFRQQSVPAASSYDSPMPPSMEDRAPLPPVPAEKFACLSPGYYSPDYGLPSPKVDALHCPPAAVVTVTPSPEGVFSSLQAKPSPSPRAELLVPSLEGALPPDLDTSEDQQATAAIIPPEPSYLEPLDEGPFSAVITEEPVEWAHPSEQALASSLIGGTSENPVSWPVGSDLLLKSPQRFPESPKRFCPADPLHSAAPGPFSASEAPYPAPPASPAPYALPVAEPGLEDVKDGVDAVPAAISTSEAAPYAPPSGLESFFSNCKSLPEAPLDVAPEPACVAAVAQVEALGPLENSFLDGSRGLSHLGQVEPVPWADAFAGPEDDLDLGPFSLPELPLQTKDAADGEAEPVEESLAPPEEMPPGAPGVINGGDVSTVVAEEPPALPPDQASTRLPAELEPEPSGEPKLDVALEAAVEAETVPEERARGDPDSSVEPAPVPPEQRPLGSGDQGAEAEGPPAASLCAPDGPAPNTVAQAQAADGAGPEDDTEASRAAAPAEGPPGGIQPEAAEPKPTAEAPKAPRVEEIPQRMTRNRAQMLANQSKQGPPPSEKECAPTPAPVTRAKARGSEDDDAQAQHPRKRRFQRSTQQLQQQLNTSTQQTREVIQQTLAAIVDAIKLDAIEPYHSDRANPYFEYLQIRKKIEEKRKILCCITPQAPQCYAEYVTYTGSYLLDGKPLSKLHIPVIAPPPSLAEPLKELFRQQEAVRGKLRLQHSIEREKLIVSCEQEILRVHCRAARTIANQAVPFSACTMLLDSEVYNMPLESQGDENKSVRDRFNARQFISWLQDVDDKYDRMKTCLLMRQQHEAAALNAVQRMEWQLKVQELDPAGHKSLCVNEVPSFYVPMVDVNDDFVLLPA
chain 2: MSISSDEVNFLVYRYLQESGFSHSAFTFGIESHISQSNINGALVPPAALISIIQKGLQYVEAEVSINEDGTLFDGRPIESLSLIDAVMPDVVQTRQQAYRDKLAQQQAAAAAAAAAAASQQGSAKNGENTANGEENGAHTIANNHTDMMEVDGDVEIPPNKAVVLRGHESEVFICAWNPVSDLLASGSGDSTARIWNLSENSTSGSTQLVLRHCIREGGQDVPSNKDVTSLDWNSEGTLLATGSYDGFARIWTKDGNLASTLGQHKGPIFALKWNKKGNFILSAGVDKTTIIWDAHTGEAKQQFPFHSAPALDVDWQSNNTFASCSTDMCIHVCKLGQDRPIKTFQGHTNEVNAIKWDPTGNLLASCSDDMTLKIWSMKQDNCVHDLQAHNKEIYTIKWSPTGPGTNNPNANLMLASASFDSTVRLWDVDRGICIHTLTKHQEPVYSVAFSPDGRYLASGSFDKCVHIWNTQTGALVHSYRGTGGIFEVCWNAAGDKVGASASDGSVCVLDLRK

Variants of: B1
Assay: co-immunoprecipitation, mass spectrometry; HEK293T cells; n = 3 independent transfections per mutant; read off a plot
Reported values of screen value for individual entries

Recorded results for 3 variants are shown here.
Variant Identifier: chain 1 R2523W
Reported: ~5.7 log2

Variant Identifier: chain 1 S2475P
Reported: ~8.3 log2

Variant Identifier: chain 1 L2605R
Reported: ~8.2 log2

Then there is this variant:
Query block: Find the measured screen value of chain 1 E2522K and report it.
Result block: ~2.6 log2
